# assayed-target: T1, SARS-CoV-2 receptor binding domain (RBD), wild type, His-tagged (BEI NR52309) (SARS-CoV-2, UniProt P0DTC2 319-541)
# T1 construct: also called WT RBD
assay-metric: RBD binding
// return just the number, without any unit appended

binder	measured-number
mAb 52 (antibody, V domains shown, also called IgG 52; antibody 52) VH: QVQLVQSGAEVKKPGSSVKVSCKASGYTFTSYGISWVRQAPGQGLEWMGGIIPMFGTTNYAQKFQGRVTITADKSTSTAYMELSSLRSEDTAVYYCARDRGDTIDYWGQGTLVTVSS VL: DIQMTQSPSSLSASVGDRVTITCRASQGISNNLNWYQQKPGKAPKLLIYAASSLESGVPSRFSGSGSGTDFTLTISSLQPEDFATYYCQQGNGFPLTFGPGTKVDIKR	0.4
mAb 46 (antibody, V domains shown, also called IgG 46; antibody 46) VH: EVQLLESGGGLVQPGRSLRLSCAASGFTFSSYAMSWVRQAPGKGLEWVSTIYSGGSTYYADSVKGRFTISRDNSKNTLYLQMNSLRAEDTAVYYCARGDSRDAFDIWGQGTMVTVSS VL: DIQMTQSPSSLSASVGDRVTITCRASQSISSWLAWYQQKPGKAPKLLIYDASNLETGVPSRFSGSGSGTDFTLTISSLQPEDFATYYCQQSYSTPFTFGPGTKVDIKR	0.2
mAb 82 (antibody, V domains shown, also called IgG 82) VH: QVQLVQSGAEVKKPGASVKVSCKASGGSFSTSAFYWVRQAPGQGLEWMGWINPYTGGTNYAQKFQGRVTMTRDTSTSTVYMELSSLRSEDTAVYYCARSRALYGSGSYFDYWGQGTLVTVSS VL: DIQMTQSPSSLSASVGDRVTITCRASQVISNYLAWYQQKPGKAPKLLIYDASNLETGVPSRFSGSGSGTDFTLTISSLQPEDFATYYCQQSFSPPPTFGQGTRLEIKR	0.6

Query binder follows.
Data request: Field request: RBD binding | item: mAb 324 (antibody, V domains shown, also called IgG 324) VH: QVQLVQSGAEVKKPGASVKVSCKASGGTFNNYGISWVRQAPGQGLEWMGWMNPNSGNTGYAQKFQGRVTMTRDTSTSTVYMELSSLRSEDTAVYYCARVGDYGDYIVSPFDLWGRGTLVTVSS VL: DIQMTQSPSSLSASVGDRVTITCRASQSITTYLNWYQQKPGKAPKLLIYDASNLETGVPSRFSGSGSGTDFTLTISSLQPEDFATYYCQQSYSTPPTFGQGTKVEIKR
Data returned: 1
